System: MOLT-4 leukemia
Assay: NCI-60 one-dose screen, 48 h
Settings: 10 µM unless noted
This is part of a sample that, as a whole, favours compounds with a hit. Of some 83,000 tested, about 20% had one in any assay. The source made the active and inactive calls. The calls were made as follows: active = growth percent below 10; inactive = the rest.
Form entry, call: pick from true (active), false (inactive)

Some solved entries appear below for comparison.
- Compound: "COc1cc(OC)cc(-c2ccc(-c3ccc(C(=N)N)s3)s2)c1"
  Group: "true"
- Compound: "COc1cccc(NC(=O)OC(C)C)c1"
  Group: "false"
- Compound: "ClC1=NC(Cl)C(Cl)=N/C1=N\\c1ncn[nH]1 (stereo unspecified)"
  Group: "true"

# lookup: test call for C/C(=N\Nc1ccc([N+](=O)[O-])cn1)c1ccc(N)cc1
true

# lookup: test call for CC(=O)O[C@H]1CC[C@]2(C)[C@H]3CC=C4[C@@H]5CC(C)(C)CC[C@]5(C(=O)OCC(COC(=O)C(Cl)Cl)(COC(=O)C(Cl)Cl)NC(=O)C(Cl)Cl)CC[C@@]4(C)[C@]3(C)CC[C@H]2C1(C)C
false

# lookup: test call for CCN(CC)c1ccc(/C=N/NC(=O)c2ccc(S(C)(=O)=O)cc2)c(O)c1
true

# lookup: test call for O=C(O)c1ccccc1Oc1cc(-c2ccco2)nc(OCCN2CCOCC2)n1
false

# lookup: test call for CC(C)(C)OC[C@@H]1N=C(c2ccc(Br)cc2)Nc2nc3ccccn3c2C1=O
false

# lookup: test call for CCCCCCCC/C=C\CCCCCCCC(=O)OCCCCCC
false

# lookup: test call for O=C(CCl)Nc1cc(O)c2c(c1)C(=O)c1cccc(O)c1C2=O
true

# lookup: test call for CC(C)CCSc1nc(-c2ccc(F)cc2)c(C#N)c(N2CCCCC2)n1
false

# lookup: test call for Cc1cccc(/C=N/n2c(-c3ccc(Cl)cc3)nc3c(Br)cc(Br)cc3c2=O)c1
false

# lookup: test call for CCN(C(=O)CCl)C(C)(C)C(SSSC(c1ccc(Cl)cc1)C(C)(C)N(CC)C(=O)CCl)c1ccc(Cl)cc1 (stereo unspecified)
false
